Values from patent US20240384268A1

Provide the recorded TLR7 500 nM (averaged NF-κB-Luciferase level relative to R848 condition) for the entries that follow.
Target: human TLR7 (Homo sapiens)
Construct: HA; host or cells: 293XL-hTLR7-HA (HEK293)
Sequence (Q9NYK1 27-1049): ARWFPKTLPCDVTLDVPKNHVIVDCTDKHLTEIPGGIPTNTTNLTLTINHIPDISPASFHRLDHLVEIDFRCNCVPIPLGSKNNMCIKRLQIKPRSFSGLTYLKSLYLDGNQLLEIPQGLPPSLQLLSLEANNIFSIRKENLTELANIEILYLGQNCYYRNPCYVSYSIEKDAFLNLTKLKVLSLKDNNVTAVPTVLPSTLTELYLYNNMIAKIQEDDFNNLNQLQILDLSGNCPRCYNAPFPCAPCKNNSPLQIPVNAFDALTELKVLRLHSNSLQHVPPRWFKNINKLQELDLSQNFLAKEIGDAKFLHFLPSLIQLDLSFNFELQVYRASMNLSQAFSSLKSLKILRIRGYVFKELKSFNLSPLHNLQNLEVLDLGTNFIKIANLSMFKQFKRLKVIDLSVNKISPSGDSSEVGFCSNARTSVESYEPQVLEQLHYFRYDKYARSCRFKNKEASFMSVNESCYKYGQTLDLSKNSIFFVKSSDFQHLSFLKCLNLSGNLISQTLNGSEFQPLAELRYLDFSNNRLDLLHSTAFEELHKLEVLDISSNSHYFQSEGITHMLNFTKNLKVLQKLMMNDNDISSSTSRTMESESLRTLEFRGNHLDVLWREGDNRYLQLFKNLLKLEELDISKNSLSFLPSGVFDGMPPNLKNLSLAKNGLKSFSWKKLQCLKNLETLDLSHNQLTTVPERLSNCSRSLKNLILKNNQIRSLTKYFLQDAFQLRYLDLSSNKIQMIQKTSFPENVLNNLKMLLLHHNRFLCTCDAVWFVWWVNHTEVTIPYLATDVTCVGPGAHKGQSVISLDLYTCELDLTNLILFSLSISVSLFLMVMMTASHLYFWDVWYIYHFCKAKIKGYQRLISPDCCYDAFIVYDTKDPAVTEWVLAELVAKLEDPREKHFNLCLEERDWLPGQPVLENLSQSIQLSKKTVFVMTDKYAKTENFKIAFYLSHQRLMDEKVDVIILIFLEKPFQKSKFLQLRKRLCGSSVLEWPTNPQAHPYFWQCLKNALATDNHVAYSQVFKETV
Assay: HEK-TLR7 NF-κB-luciferase reporter, R848 stimulation
Format: cell-based
Conditions: ASO 500 nM; relative to R848 only, given as fraction
One number for each entry.

// below: answered sequences
{"columns": ["sequence.data", "measurement"],
 "data": [
  ["GTTCAGTCCTGTCCAT (antisense; LNA-modified, pattern not given here) [HPRT LNA-292 V1]", 0.114],
  ["TGGCCTCCCATCTCCT (antisense; LNA-modified, pattern not given here) [HPRT LNA-329 V1]", 0.217],
  ["TCCTTGCACGTGGCTT (antisense; LNA-modified, pattern not given here) [EGFR-1014 LNA V1]", 0.482],
  ["GGTTACGGCTCAGTAT (antisense; LNA-modified, pattern not given here) [CAMSAP1-4295 LNA KL]", 0.140]
]}

Now turn to the next sequence.
[ask] So what's the measured TLR7 500 nM (averaged NF-κB-Luciferase level relative to R848 condition) for this one? ATCTGGCAGCCCATCA (antisense; LNA-modified, pattern not given here) [CTNN2B-2516 LNA V1]
[reply] 0.279

---

Biological target: TLR8 (Homo sapiens, UniProt Q9NR97)
Sequence (Q9NR97 27-1041): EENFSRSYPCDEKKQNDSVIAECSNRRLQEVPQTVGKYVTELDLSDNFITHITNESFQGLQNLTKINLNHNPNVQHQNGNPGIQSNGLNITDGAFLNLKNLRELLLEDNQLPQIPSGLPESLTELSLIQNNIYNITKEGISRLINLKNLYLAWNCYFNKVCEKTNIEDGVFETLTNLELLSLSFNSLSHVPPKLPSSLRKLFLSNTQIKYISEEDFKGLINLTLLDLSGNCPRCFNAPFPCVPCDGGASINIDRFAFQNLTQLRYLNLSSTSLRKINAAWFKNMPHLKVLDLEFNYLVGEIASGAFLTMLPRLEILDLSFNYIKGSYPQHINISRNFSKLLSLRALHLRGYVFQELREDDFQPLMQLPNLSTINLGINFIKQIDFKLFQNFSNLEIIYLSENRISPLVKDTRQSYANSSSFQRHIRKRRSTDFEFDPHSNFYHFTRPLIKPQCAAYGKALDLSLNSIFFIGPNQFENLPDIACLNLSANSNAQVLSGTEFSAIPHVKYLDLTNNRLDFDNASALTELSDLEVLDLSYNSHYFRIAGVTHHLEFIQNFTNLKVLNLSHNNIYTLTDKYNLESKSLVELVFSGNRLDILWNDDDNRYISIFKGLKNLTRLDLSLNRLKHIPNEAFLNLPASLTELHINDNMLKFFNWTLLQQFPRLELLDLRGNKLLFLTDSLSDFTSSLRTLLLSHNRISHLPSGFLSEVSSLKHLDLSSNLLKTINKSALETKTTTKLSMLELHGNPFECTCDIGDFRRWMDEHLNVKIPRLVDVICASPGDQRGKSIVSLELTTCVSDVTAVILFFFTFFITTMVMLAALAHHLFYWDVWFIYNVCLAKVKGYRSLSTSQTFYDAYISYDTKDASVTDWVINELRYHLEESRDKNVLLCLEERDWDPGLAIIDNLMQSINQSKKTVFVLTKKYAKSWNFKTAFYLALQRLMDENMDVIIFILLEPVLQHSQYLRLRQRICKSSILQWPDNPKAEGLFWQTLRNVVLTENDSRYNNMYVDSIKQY
Experiment: HEK-TLR8 NF-κB-luciferase reporter, R848 or Motolimod stimulation (potentiation or inhibition)
Format: cell-based
Design: expressed in transfected cells; host or cells: 293XLhTLR8 (HEK293)
Details: ASO 100 nM; relative to R848 only
# if value of TLR8 100 nM (averaged NF-κB-Luciferase level relative to R848 condition, fold increase) reaches 0.6, tag Satisfied; if it stays below, tag Not satisfied

Worked examples, 5 sequences total:
{"columns": ["sequence.data", "assigned.label"],
 "data": [
  ["GTCTCTGGAGCTTCCT (antisense; LNA-modified, pattern not given here) [CAMSAP1-2456 LNA V1]", "Satisfied"],
  ["GGTCATTACAATAGCT (antisense; LNA-modified, pattern not given here) [HPRT LNA-475 KL]", "Not satisfied"],
  ["AGGACTCCAGATGTTT (antisense; LNA-modified, pattern not given here) [HPRT LNA pos cont]", "Not satisfied"],
  ["ATGTGATGGCCTCCCA (antisense; LNA-modified, pattern not given here) [HPRT LNA-335 V1]", "Satisfied"],
  ["TTCAGGCGCTGCCTTG (antisense; LNA-modified, pattern not given here) [CAMSAP1-2709 LNA V1]", "Not satisfied"]
]}

[ask] Does GGCACTTTGCCTCCTT (antisense; LNA-modified, pattern not given here) [EGFR-2859 LNA V1] have a reported TLR8 100 nM (averaged NF-κB-Luciferase level relative to R848 condition, fold increase) of at least 0.6?
[reply] Satisfied

[ask] Does GCAGGCTCAGTGATGT (antisense; LNA-modified, pattern not given here) [CTNN2B-1642 LNA V1] have a reported TLR8 100 nM (averaged NF-κB-Luciferase level relative to R848 condition, fold increase) of at least 0.6?
[reply] Satisfied

[ask] Does TCGTAGTTGCTTCCTA (antisense; LNA-modified, pattern not given here) [MB21D1-1181 LNA KL] have a reported TLR8 100 nM (averaged NF-κB-Luciferase level relative to R848 condition, fold increase) of at least 0.6?
[reply] Not satisfied

[ask] Does TGTGATGGCCTCCCAT (antisense; LNA-modified, pattern not given here) [HPRT LNA-334 V1] have a reported TLR8 100 nM (averaged NF-κB-Luciferase level relative to R848 condition, fold increase) of at least 0.6?
[reply] Not satisfied

[ask] Does GCCATGCTGGCTCGGA (antisense; LNA-modified, pattern not given here) [CAMSAP1-2584 LNA V1] have a reported TLR8 100 nM (averaged NF-κB-Luciferase level relative to R848 condition, fold increase) of at least 0.6?
[reply] Not satisfied

[ask] Does CACTTCGTGGGGTCCT (antisense; LNA-modified, pattern not given here) [HPRT LNA-664 V1] have a reported TLR8 100 nM (averaged NF-κB-Luciferase level relative to R848 condition, fold increase) of at least 0.6?
[reply] Not satisfied

[ask] Does GTCCCCTGTTGACTGG (antisense; LNA-modified, pattern not given here) [HPRT LNA-489 KL] have a reported TLR8 100 nM (averaged NF-κB-Luciferase level relative to R848 condition, fold increase) of at least 0.6?
[reply] Not satisfied

[ask] Does GTCTTCATCGGCCCTG (antisense; LNA-modified, pattern not given here) [CAMSAP1-2113 LNA V1] have a reported TLR8 100 nM (averaged NF-κB-Luciferase level relative to R848 condition, fold increase) of at least 0.6?
[reply] Satisfied

[ask] Does CTTGAAGCATCGTATC (antisense; LNA-modified, pattern not given here) [CTNN2B-3648 LNA KL] have a reported TLR8 100 nM (averaged NF-κB-Luciferase level relative to R848 condition, fold increase) of at least 0.6?
[reply] Satisfied

[ask] Does TCTTGGCTTCGTGGAG (antisense; LNA-modified, pattern not given here) [MB21D1-521 LNA V1] have a reported TLR8 100 nM (averaged NF-κB-Luciferase level relative to R848 condition, fold increase) of at least 0.6?
[reply] Not satisfied

[ask] Does CCTTGCACGTGGCTTC (antisense; LNA-modified, pattern not given here) [EGFR-1013 LNA V1] have a reported TLR8 100 nM (averaged NF-κB-Luciferase level relative to R848 condition, fold increase) of at least 0.6?
[reply] Satisfied

[ask] Does GCCATGTTTCTTCTTG (antisense; LNA-modified, pattern not given here) [MB21D1-1248 LNA KL] have a reported TLR8 100 nM (averaged NF-κB-Luciferase level relative to R848 condition, fold increase) of at least 0.6?
[reply] Not satisfied

[ask] Does TTCGTGGGGTCCTTTT (antisense; LNA-modified, pattern not given here) [HPRT LNA-661 V1] have a reported TLR8 100 nM (averaged NF-κB-Luciferase level relative to R848 condition, fold increase) of at least 0.6?
[reply] Satisfied

[ask] Does CTTCGTGGGGTCCTTT (antisense; LNA-modified, pattern not given here) [HPRT LNA-662 V1] have a reported TLR8 100 nM (averaged NF-κB-Luciferase level relative to R848 condition, fold increase) of at least 0.6?
[reply] Satisfied

[ask] Does CCAACACTTCGTGGGG (antisense; LNA-modified, pattern not given here) [HPRT LNA-668 V1] have a reported TLR8 100 nM (averaged NF-κB-Luciferase level relative to R848 condition, fold increase) of at least 0.6?
[reply] Not satisfied

[ask] Does TCCGCCCAAAGGGAAC (antisense; LNA-modified, pattern not given here) [HPRT LNA-1027 KL] have a reported TLR8 100 nM (averaged NF-κB-Luciferase level relative to R848 condition, fold increase) of at least 0.6?
[reply] Not satisfied

[ask] Does GCACTTCAGTCTGAGC (antisense; LNA-modified, pattern not given here) [MB21D1-719 LNA KL] have a reported TLR8 100 nM (averaged NF-κB-Luciferase level relative to R848 condition, fold increase) of at least 0.6?
[reply] Not satisfied

[ask] Does CGCTTTTCTGTCTGGT (antisense; LNA-modified, pattern not given here) [CTNN2B-311 LNA KL] have a reported TLR8 100 nM (averaged NF-κB-Luciferase level relative to R848 condition, fold increase) of at least 0.6?
[reply] Satisfied

[ask] Does CCATCCATGAGGTCCT (antisense; LNA-modified, pattern not given here) [CTNN2B-2545 LNA V1] have a reported TLR8 100 nM (averaged NF-κB-Luciferase level relative to R848 condition, fold increase) of at least 0.6?
[reply] Satisfied

[ask] Does CGTATTATAGCCGATT (antisense; LNA-modified, pattern not given here) [NC1 LNA PS 3-10-3] have a reported TLR8 100 nM (averaged NF-κB-Luciferase level relative to R848 condition, fold increase) of at least 0.6?
[reply] Not satisfied
